Target: human 11b-hsd-1 (Homo sapiens)
Sequence (P28845 whole entry): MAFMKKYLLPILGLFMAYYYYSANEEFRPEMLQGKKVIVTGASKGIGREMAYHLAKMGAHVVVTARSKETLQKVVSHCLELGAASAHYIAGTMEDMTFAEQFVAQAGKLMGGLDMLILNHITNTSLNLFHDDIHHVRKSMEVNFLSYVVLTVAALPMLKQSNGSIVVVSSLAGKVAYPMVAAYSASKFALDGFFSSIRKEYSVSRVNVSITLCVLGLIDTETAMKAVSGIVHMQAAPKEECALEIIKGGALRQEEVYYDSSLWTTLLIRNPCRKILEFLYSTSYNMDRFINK
Experiment: Inhibition constant Ki of human 11b-hsd-1 (3H-cortisone to 3H-cortisol conversion, HPLC)
Assay type: biochemical
Settings: compound at 0.1 μM
outcomeMeasure: inhibition at 0.1 µM (%)
Report the value in % with no unit label.

Input: Quote human 11b-hsd-1 (Homo sapiens) inhibition at 0.1 µM for entry CCN1CCC(CN2CCOC[C@@H]2C(=O)NC2C3CC4CC(C3)CC2C4)CC1 (stereo partly shown) .
Output: 91

Input: # return inhibition at 0.1 µM of CC(C)CN1CCOC[C@@H]1C(=O)NCc1cccc(F)c1 (system: human 11b-hsd-1 (Homo sapiens))
Output: 65

Input: Give inhibition at 0.1 µM; test system human 11b-hsd-1 (Homo sapiens); compound O=C(NC1CCCCC1)[C@H]1CCCN1CC1CC1
Output: 91

Input: Tell me inhibition at 0.1 µM of CN(C)CCN1CCOC[C@@H]1C(=O)NC1C2CC3CC(C2)CC1C3 (stereo partly shown) when tested on human 11b-hsd-1 (Homo sapiens).
Output: 59.4

Input: State inhibition at 0.1 µM (human 11b-hsd-1 (Homo sapiens)) of CC1(C(=O)NC2CCCCC2)CCCN1Cc1ccc(C#N)cc1 (stereo not shown) .
Output: 71

Input: Look up and report inhibition at 0.1 µM, with human 11b-hsd-1 (Homo sapiens) as system, for CN(C(=O)[C@H]1COCCN1CC1CCCCC1)C1CCCCC1
Output: 80

Input: Please tell me the measured inhibition at 0.1 µM for CN(C(=O)[C@H]1CCCN1Cc1ccc(Cl)cc1)C1CCCCC1 ; system: human 11b-hsd-1 (Homo sapiens).
Output: 83.7

Input: Write inhibition at 0.1 µM of C[C@H](O)CN1CCC[C@@H]1C(=O)NC1C2CC3CC(C2)CC1C3 (stereo partly shown) ; system used: human 11b-hsd-1 (Homo sapiens)
Output: 100

Input: Fill: inhibition at 0.1 µM (human 11b-hsd-1 (Homo sapiens)) for this compound CC1(C)CC(NC(=O)C2COCCN2CC2CCCC2)CC(C)(C)C1 (stereo not shown)
Output: 100

Input: For human 11b-hsd-1 (Homo sapiens), give inhibition at 0.1 µM of the listed compound: N#Cc1ccc(CN2CCC[C@@H]2C(=O)NC2CCCCC2)cc1
Output: 100

Input: Find the measured inhibition at 0.1 µM of O=C(NC1CCCCC1)[C@H]1C[C@@H](O)CN1CC1CCCC1 with human 11b-hsd-1 (Homo sapiens) as test system.
Output: 63

Input: Find inhibition at 0.1 µM for N#Cc1cccc(CN2CCOCC2C(=O)NC23CC4CC(CC(C4)C2)C3)c1 (stereo not shown) on human 11b-hsd-1 (Homo sapiens) and write it down.
Output: 100

Input: Determine reported inhibition at 0.1 µM for C[C@@H](CN1CCC[C@@H]1C(=O)NC1C2CC3CC(C2)CC1C3)NC(=O)OC(C)(C)C (stereo partly shown) ; test system: human 11b-hsd-1 (Homo sapiens).
Output: 96

Input: Jot down inhibition at 0.1 µM (human 11b-hsd-1 (Homo sapiens)) of CC(C)CN1CCOC[C@@H]1C(=O)NC1C2CC3CC(C2)CC1C3 (stereo partly shown) .
Output: 100

Input: State the measured inhibition at 0.1 µM (human 11b-hsd-1 (Homo sapiens)) of N#Cc1ccc(CN2CCOC[C@@H]2C(=O)NC2C3CC4CC(C3)CC2C4)cc1 (stereo partly shown)
Output: 100

Input: Would you please give the reported inhibition at 0.1 µM of CS(=O)(=O)N1CCC[C@H]1CN1CCC[C@@H]1C(=O)NC1C2CC3CC(C2)CC1C3 (stereo partly shown) with human 11b-hsd-1 (Homo sapiens)?
Output: 100

Input: Report value only: inhibition at 0.1 µM, human 11b-hsd-1 (Homo sapiens), COC(C)(C)CN1CCC[C@@H]1C(=O)NC1C2CC3CC(C2)CC1C3 (stereo partly shown)
Output: 100

Input: GET inhibition at 0.1 µM where system = human 11b-hsd-1 (Homo sapiens) and item = CCN1CCOC[C@@H]1C(=O)NC1C2CC3CC(C2)CC1C3 (stereo partly shown)
Output: 100

Input: Print human 11b-hsd-1 (Homo sapiens) inhibition at 0.1 µM for CCN1CCC[C@@H]1C(=O)NC1CCCCC1 .
Output: 62

Input: Recall the reported inhibition at 0.1 µM of CCOc1ccccc1CNC(=O)[C@H]1CCCN1CC(C)C on human 11b-hsd-1 (Homo sapiens) and write it down.
Output: 100

Input: Report inhibition at 0.1 µM under test system human 11b-hsd-1 (Homo sapiens) for CCCN1CCC[C@@H]1C(=O)NC1(C)CCCCC1 .
Output: 100

Input: Give inhibition at 0.1 µM for O=C(NC1C2CC3CC(C2)CC1C3)[C@H]1C[C@@H](O)CN1Cc1ccccc1 (stereo partly shown) tested on human 11b-hsd-1 (Homo sapiens).
Output: 100

Input: For human 11b-hsd-1 (Homo sapiens), give inhibition at 0.1 µM of the listed compound: CC(C)N1CCC(CN2CCOC[C@@H]2C(=O)NC2C3CC4CC(C3)CC2C4)CC1 (stereo partly shown)
Output: 83

Input: For human 11b-hsd-1 (Homo sapiens), give inhibition at 0.1 µM of the listed compound: CN(C(=O)[C@H]1COCCN1CC1CCOCC1)C1CCCCC1
Output: 64

Input: Give reported inhibition at 0.1 µM for O=C(NC1C2CC3CC(C2)CC1C3)[C@H]1CCCNC1 (stereo partly shown) (human 11b-hsd-1 (Homo sapiens))
Output: 17

Input: Print human 11b-hsd-1 (Homo sapiens) inhibition at 0.1 µM for CS(=O)(=O)NCCN1CCC[C@@H]1C(=O)NC1C2CC3CC(C2)CC1C3 (stereo partly shown) .
Output: 56

Input: Report inhibition at 0.1 µM on human 11b-hsd-1 (Homo sapiens) for this entry: CN(C(=O)C1COCCN1Cc1ccccc1)C1CCCCC1 (stereo not shown)
Output: 92.2

Input: Fill in inhibition at 0.1 µM for O=C(NC1CCCCC1)[C@H]1CCCN1CC1CCCC1 tested with human 11b-hsd-1 (Homo sapiens).
Output: 100

Input: State measured inhibition at 0.1 µM of the compound CC(C)CN1CCC[C@@H]1C(=O)N[C@@H]1CCCc2ccccc21 with human 11b-hsd-1 (Homo sapiens).
Output: 100

Input: Lab note: human 11b-hsd-1 (Homo sapiens) assay, enter inhibition at 0.1 µM for O=C(NC1CCCCC1)[C@H]1CCCN1CC1CCOCC1 here
Output: 91

Input: # lookup: human 11b-hsd-1 (Homo sapiens) inhibition at 0.1 µM, key = CN(C(=O)C1COCCN1CC1CCCCC1)C1CCCCC1 (stereo not shown)
Output: 72.1
